# Test Description: Pharmacokinetic data in CD-1 mice after oral administration
# Assay type: in vivo
# Condition Description: mouse, serum, Table 7: CD-1 mice, nominal dose 5.10 mg/kg Cmpd. A or 6.57-8.40 mg/kg DV salt, analyte: dosed derivative (DV)
Parameter Measured: log10 of AUC(0-inf) (log10 of the value in ng·h/mL)
Recorded AUC(0-inf) (log10, ng·h/mL)

- Compound: "Clc1ccc(COC2(c3ccc(Cl)cc3)c3ccccc3C3=NCCN32)cc1 (centres unmarked)"
  log10 of AUC(0-inf): 2.35
- Compound: "FC(F)(F)c1ccc(COC2(c3ccc(Cl)cc3)c3ccccc3C3=NCCN32)cc1 (centres unmarked)"
  log10 of AUC(0-inf): 2.33
- Compound: "CC(C)/C=C/COC1(c2ccc(Cl)cc2)c2ccccc2C2=NCCN21 (centres unmarked)"
  log10 of AUC(0-inf): 1.52
- Compound: "FC(F)(F)c1ccc(/C=C/COC2(c3ccc(Cl)cc3)c3ccccc3C3=NCCN32)cc1 (centres unmarked)"
  log10 of AUC(0-inf): 2.90

[ask] State the recorded log10 of AUC(0-inf) for this entry: COc1ccc(COC2(c3ccc(Cl)cc3)c3ccccc3C3=NCCN32)cc1OC (centres unmarked)
[reply] 1.20
